Catalogue of growth values
tested on: SK-MEL-5 melanoma; test: NCI-60 one-dose screen, 48 h (100 = growth as untreated, 0 = no growth, -100 = all killed); settings: 10 µM unless noted
This is part of a sample that, as a whole, favours compounds with a hit. Of some 83,000 tested, about 20% had one in any assay.

>  <Structure Smiles String>
O=C1/C(=C/c2ccccc2)CN(C(=O)CCN2CCC(=NO)CC2)C/C1=C\c1ccccc1

>  <growth, %>
-59.2

$$$$
>  <Structure Smiles String>
Cn1c(=O)cc(NC(=O)CN2CCN(c3cc4c(cc3F)c(=O)c(C(=O)O)cn4C3CC3)CC2)[nH]c1=O

>  <growth, %>
101

$$$$
>  <Structure Smiles String>
CCc1cnc(=S)n(-c2ccccc2)c1

>  <growth, %>
117

$$$$

* * *

system: HCT-15 colon; assay: NCI-60 one-dose screen, 48 h (100 = growth as untreated, 0 = no growth, -100 = all killed); conditions: 10 µM unless noted
The panel holds about 83,000 compounds, 20% with a hit somewhere; the sample as a whole holds those more often. Activity calls are given as the source filed them. How the source made its calls: active means growth percent below 10; inactive means the rest.
Experimental Endpoint: growth

>  <Compound>
COC(=O)C(Sc1ccc(Cl)cc1)C1SC(=S)N(Cc2ccccc2)C1=O (stereo unspecified)

>  <Obs Value>
73.9% (inactive)

$$$$
>  <Compound>
COc1ccc(-c2nc(N3CCCC3=O)sc2Br)cc1OC

>  <Obs Value>
89.8% (inactive)

$$$$
>  <Compound>
COc1cc(/C(C#N)=C/c2ccc3c(c2OC)OCO3)cc2c1OCO2

>  <Obs Value>
33% (inactive)

$$$$
>  <Compound>
CCC(=O)Oc1ccc(/C(=C(/C)Cc2cccc(OC)c2)c2ccc(OCCN(C)C)cc2)cc1

>  <Obs Value>
48.2% (inactive)

$$$$
>  <Compound>
C=C1CC2(OC1=O)C(=O)N(CCCN1C(=O)C3(CC(=C)C(=O)O3)c3ccccc31)c1ccccc12 (stereo unspecified)

>  <Obs Value>
-28.1% (active)

$$$$
>  <Compound>
O=C(/C=C/c1c[nH]c2ccccc12)c1ccc(O)c(CN2CCN(c3ccc(F)cc3)CC2)c1

>  <Obs Value>
93.5% (inactive)

$$$$
>  <Compound>
COc1ccc(/C=N\NC(=O)CN2CCN(c3cc4c(cc3F)c(=O)c(C(=O)N/N=C/c3ccc(OC)c(OC)c3)cn4C3CC3)CC2)cc1OC

>  <Obs Value>
98% (inactive)

$$$$
>  <Compound>
CCOC(=O)c1cn2c3c(cc(C)cc3c1=O)C(=O)/C(=C/c1ccccc1)C2

>  <Obs Value>
109% (inactive)

$$$$
>  <Compound>
COc1cccc(/C=C2\Oc3cc(OCCCN4CCCC4)ccc3C2=O)c1

>  <Obs Value>
19.3% (inactive)

$$$$
>  <Compound>
CCN(CC)CCC(CNc1ccnc2cc(Cl)ccc12)c1ccc(Cl)cc1 (stereo unspecified)

>  <Obs Value>
-9.14% (active)

$$$$
>  <Compound>
CCCCOc1ccc(/C=C2/SC(N3CCCC3)=NC2=O)cc1

>  <Obs Value>
97.2% (inactive)

$$$$
>  <Compound>
COC(=O)C1CCCN1C(=O)[C@@H]1CCCN1C(=O)[C@H](Cc1c[nH]c2ccccc12)NC(=S)Nc1cc(C(F)(F)F)cc(C(F)(F)F)c1 (stereo partly specified)

>  <Obs Value>
40% (inactive)

$$$$
>  <Compound>
COc1ccc(-c2nc(/C=C3/C(=O)Nc4ccc(F)cc43)c3ccccn23)cc1

>  <Obs Value>
107% (inactive)

$$$$
>  <Compound>
Cn1c(=O)c2[nH]c(C3CC=CCC3)nc2n(C)c1=O (stereo unspecified)

>  <Obs Value>
106% (inactive)

$$$$
>  <Compound>
COc1cc(C(=O)/C=C/c2ccc3nc(-c4cc(F)cc(F)c4)sc3c2)cc(OC)c1OC

>  <Obs Value>
99.5% (inactive)

$$$$
>  <Compound>
Cc1nc2c3c(ncn2n1)Oc1c(c(=O)[nH]c2ccccc12)C3c1ccc(Cl)cc1 (stereo unspecified)

>  <Obs Value>
99.6% (inactive)

$$$$
>  <Compound>
CC12CCC3C4(C)COC(c5ccccc5Cl)OC4CCC3(C)C1CC(C1=CCOC1=O)O2 (stereo unspecified)

>  <Obs Value>
41.2% (inactive)

$$$$
>  <Compound>
O=C1/C(=C/c2ccc(Cl)cc2)CN(Cc2cn(CCNc3ccnc4cc(Cl)ccc34)nn2)C/C1=C\c1ccc(Cl)cc1

>  <Obs Value>
-82% (active)

$$$$
>  <Compound>
Cn1ccc(=O)c(S(N)(=O)=O)c1

>  <Obs Value>
109% (inactive)

$$$$
>  <Compound>
CC(=O)Oc1csc(N(C(C)=O)c2cccc(C(F)(F)F)c2)n1

>  <Obs Value>
94.4% (inactive)

$$$$
>  <Compound>
CCCOC(=O)n1cccc1

>  <Obs Value>
107% (inactive)

$$$$
>  <Compound>
c1ccc(-c2cn(-c3ccccc3)c(-c3ccccc3)n2)cc1

>  <Obs Value>
60.9% (inactive)

$$$$
>  <Compound>
COc1ccc(CNCCCN2C(=O)c3ccc4c5c(ccc(c35)C2=O)C(=O)N(CCCNCCCCNCCCN)C4=O)c(OC)c1OC

>  <Obs Value>
19.7% (inactive)

$$$$
>  <Compound>
Cc1ccc(-c2nc(C(Cl)Cl)n3nc(-c4ccccc4)cc3n2)cc1

>  <Obs Value>
-26.8% (active)

$$$$
>  <Compound>
O=C(/C=C\c1cccc([N+](=O)[O-])c1)/C=C/c1cccc([N+](=O)[O-])c1

>  <Obs Value>
73.5% (inactive)

$$$$
>  <Compound>
CCOC(=O)c1ccc(NC(=O)N2CC(C)OC(C)C2)cc1 (stereo unspecified)

>  <Obs Value>
96.2% (inactive)

$$$$
>  <Compound>
Cc1cc(C2(c3cc(C)c(O)cc3C)OS(=O)(=O)c3ccccc32)c(C)cc1O

>  <Obs Value>
105% (inactive)

$$$$
>  <Compound>
NC1=C(/C(N)=N/O)C(c2ccccc2)c2ccc3ccccc3c2O1 (stereo unspecified)

>  <Obs Value>
5.04% (active)

$$$$
>  <Compound>
c1cc(C2=N[C@@H]3c4ccccc4C[C@@H]3O2)nc(C2=N[C@@H]3c4ccccc4C[C@@H]3O2)c1

>  <Obs Value>
94.7% (inactive)

$$$$
>  <Compound>
COc1ccc(S(=O)(=O)NCCCNc2nccc(-n3ccc4cccnc43)n2)cc1

>  <Obs Value>
75.8% (inactive)

$$$$
>  <Compound>
c1ccc(-c2nc(N3CCNCC3)c3nc(-c4ccccc4)oc3n2)cc1

>  <Obs Value>
-81.3% (active)

$$$$

* * *

system: SK-OV-3 ovarian; test: NCI-60 one-dose screen, 48 h (100 = growth as untreated, 0 = no growth, -100 = all killed); conditions: 10 µM unless noted
About 83,000 compounds went through this panel and 20% of them were active in at least one assay; those are over-represented in the sample as a whole.

>  <Compound>
Cc1ccc2nc(Cl)cc(=O)n2c1

>  <growth / %>
102

$$$$
>  <Compound>
COc1ccc(/C=C2\N=C(c3ccccc3)N(C(=O)c3ccccc3O)NC2=O)cc1

>  <growth / %>
100

$$$$
>  <Compound>
CCN(CC)CCC(CNc1ccnc2cc(Cl)ccc12)c1ccc(Cl)cc1 (centres undefined)

>  <growth / %>
-12.9

$$$$
>  <Compound>
C=C1C(=O)O[C@H]2[C@H]1CC/C(Cn1cc(-c3cccc(Cl)c3)nn1)=C\CC[C@@]1(C)O[C@@H]21

>  <growth / %>
80.8

$$$$

* * *

test system: OVCAR-5 ovarian; experiment: NCI-60 one-dose screen, 48 h; settings: 10 µM unless noted
The panel holds about 83,000 compounds, 20% with a hit somewhere; the sample as a whole holds those more often. The source made the active and inactive calls. Rule for the calls: active = growth percent below 10; inactive = the rest.
Possible outcomes: 1.0 = active, 0.0 = inactive

>  <Compound>
C=CCSc1n[nH]c(-c2cccs2)n1

>  <Label Class>
0.0

$$$$
>  <Compound>
CCCCCCCCCCCCCCCCCCNC(=O)[C@H]1CSC(c2ccc(OC)cc2O)N1 (stereo not given in full)

>  <Label Class>
0.0

$$$$
>  <Compound>
COc1ccc2c(c1)[nH]c(=O)c1c3cc(OC)ccc3cn21

>  <Label Class>
0.0

$$$$
>  <Compound>
Cc1ccc(S(=O)(=O)/C(=C\c2ccc(Cl)cc2)C(=O)c2ccccc2)cc1

>  <Label Class>
0.0

$$$$
>  <Compound>
O=[N+]([O-])c1cnc(Sc2ccncn2)s1

>  <Label Class>
0.0

$$$$
>  <Compound>
Fc1ccc(Nc2ncnc3ccc(-c4cnc5[nH]ccc5c4)cc23)cc1Cl

>  <Label Class>
1.0

$$$$
>  <Compound>
c1ccc(Nc2nc(Nc3ccccc3)nc(Nc3ccccc3)n2)cc1

>  <Label Class>
0.0

$$$$
>  <Compound>
Cc1ccc(S(=O)(=O)NCCNc2nccc(-c3c(-c4cccc(N)c4)nc4sccn34)n2)cc1

>  <Label Class>
0.0

$$$$
>  <Compound>
O=S(=O)(NCCNc1nccc(-c2c(-c3cccc(O)c3)nc3sccn23)n1)c1ccc(F)cc1

>  <Label Class>
0.0

$$$$
>  <Compound>
O=C(Nc1cccc(-n2cc(-c3ccncc3)c(-c3ccc(Cl)c(O)c3)n2)c1)Nc1ccc(Cl)c(Cl)c1

>  <Label Class>
0.0

$$$$
>  <Compound>
COc1ccc2[nH]c(=O)c3c4ccccc4cn3c2c1

>  <Label Class>
0.0

$$$$
>  <Compound>
Fc1ccc(Nc2nc(NCCNc3ccnc4cc(Cl)ccc34)nc(N3CCOCC3)n2)cc1

>  <Label Class>
0.0

$$$$
>  <Compound>
CN1CCN(Cc2ccc(NC(=O)c3cncc(C#Cc4cnc(N)c5ccncc45)c3)cc2C(F)(F)F)CC1

>  <Label Class>
1.0

$$$$
>  <Compound>
O=c1ccn(C2CC(O)C(O)C(CO)O2)c(=O)[nH]1 (stereo not given)

>  <Label Class>
0.0

$$$$
>  <Compound>
CCNc1nc(S(=O)(=O)CC)nc2ccccc12

>  <Label Class>
0.0

$$$$
